Where do the numbers come from? From paper PMC9934072.

assayed target: T1, LanCL1 Wild Type (human LanC-like protein 1) (human, UniProt O43813 1-399)
T1 construct: LanC-like protein 1 (LanCL1), human; also called LanCL1 WT; WT-LanCL1; source: E. coli Rosetta 2 (DE3), purified (HisTrap Ni-NTA, PD-10 desalting)
T1 sequence (O43813 whole entry): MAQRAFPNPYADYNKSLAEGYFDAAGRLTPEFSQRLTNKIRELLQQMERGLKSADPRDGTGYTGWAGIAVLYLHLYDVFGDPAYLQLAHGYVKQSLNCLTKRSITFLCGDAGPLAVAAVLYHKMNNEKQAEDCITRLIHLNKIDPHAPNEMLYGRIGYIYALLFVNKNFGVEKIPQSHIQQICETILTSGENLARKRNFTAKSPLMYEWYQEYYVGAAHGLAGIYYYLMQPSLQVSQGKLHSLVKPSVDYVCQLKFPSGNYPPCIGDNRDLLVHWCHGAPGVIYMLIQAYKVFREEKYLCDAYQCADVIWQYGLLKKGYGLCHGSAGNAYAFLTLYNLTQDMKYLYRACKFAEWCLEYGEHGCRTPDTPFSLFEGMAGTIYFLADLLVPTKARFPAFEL
test summary: fluorescence polarisation; competition: 20 μM LanCL1 WT, 20 nM fluorescein-Dha-Erk, acetyl peptide from 1000 μM in 2-fold dilutions; 15 min incubation; triplicates; dose-response fit, Ki = IC50/(1+[L]/Kd)
test conditions: both partners purified
pKi: −log10 of the molar value. Ends that are not written are not given here.
recorded endpoint: pKi

binder: Ac-DHTGFLAEYVATR (Numbers count on: the synthetic 13-mer; Its preparation is not described; also called Ac-Ala-Erk) [acetyl-Ala-Erk peptide]
result number: 3.07
